Target: Rac GTPase-activating protein 1 (Homo sapiens) (UniProt Q9H0H5)
Sequence (Q9H0H5 whole entry, looked up): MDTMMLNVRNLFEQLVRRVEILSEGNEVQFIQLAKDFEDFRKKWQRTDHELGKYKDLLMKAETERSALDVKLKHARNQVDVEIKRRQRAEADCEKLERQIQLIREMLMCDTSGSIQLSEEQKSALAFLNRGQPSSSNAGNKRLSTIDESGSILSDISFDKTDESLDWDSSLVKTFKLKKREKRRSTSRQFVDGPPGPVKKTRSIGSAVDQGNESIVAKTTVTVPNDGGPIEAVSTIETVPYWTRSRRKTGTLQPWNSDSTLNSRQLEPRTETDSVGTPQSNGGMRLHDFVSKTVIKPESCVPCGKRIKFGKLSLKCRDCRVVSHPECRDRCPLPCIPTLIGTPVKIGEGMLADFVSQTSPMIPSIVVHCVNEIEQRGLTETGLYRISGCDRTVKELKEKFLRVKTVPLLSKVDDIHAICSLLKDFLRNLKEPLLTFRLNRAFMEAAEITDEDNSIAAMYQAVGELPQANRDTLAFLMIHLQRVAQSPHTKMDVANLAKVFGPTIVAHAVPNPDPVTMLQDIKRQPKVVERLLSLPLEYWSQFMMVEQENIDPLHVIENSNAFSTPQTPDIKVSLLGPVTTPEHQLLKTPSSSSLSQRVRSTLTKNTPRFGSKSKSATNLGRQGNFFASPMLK
Assay: blockers of MgcRacGAP-driven Rac1 GTP hydrolysis – biochemical, ADP Hunter fluorescence, primary and confirmatory, confirmation (AID 624330);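 further: fluorescence reports GDP produced by GAP-driven GTP hydrolysis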
Conditions: MgcRacGAP-stimulated Rac1 GTP hydrolysis, at 30 µM, stronger effect = higher value, GST-tagged Rac1 F28L mutant substrate
Hit rate of the full screen: of about 340,000 compounds, about 2,100 (0.62%) were called active. Not all results are given here. Entries with a potency or affinity are not part of this list.
value type: inhibition (%)
The response must be a number in % with no trailing unit.

Prompt line: // lookup inhibition for CC(C)Oc1ccc(CNC(=O)c2cc(S(=O)(=O)N3CCOCC3)cn2C)cc1
Response line: 7.69

Prompt line: // lookup inhibition for CN(C)c1ccc(/C=C2\CCC/C(=C\c3ccccc3)C2=O)cc1
Response line: 10.2

Prompt line: // lookup inhibition for C/C(O)=C(\C#N)c1nc2ccccc2[nH]1
Response line: 6.3

Next:
Prompt line: // lookup inhibition for CC(C)/C=C1\CC/C(=C\c2ccc(N(C)C)cc2)C1=O
Response line: 6.52

Prompt line: // lookup inhibition for CC(C)=CCN1CCN(CCCn2cccn2)CC1CCO (stereo unspecified)
Response line: 0.56

Prompt line: // lookup inhibition for O=C(COn1nnc2ccc(S(=O)(=O)N3CCOCC3)cc21)NCc1cccc(Cl)c1
Response line: 13.7

---

Target: Rac GTPase-activating protein 1 (Homo sapiens) (UniProt Q9H0H5)
Test: blockers of MgcRacGAP-driven Rac1 GTP hydrolysis – biochemical, ADP Hunter fluorescence, primary and confirmatory, confirmation (AID 624330);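 further: fluorescence reports GDP produced by GAP-driven GTP hydrolysis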
Conditions: MgcRacGAP-stimulated Rac1 GTP hydrolysis, at 30 µM, stronger effect = higher value, GST-tagged Rac1 F28L mutant substrate
Screen size: about 340,000 compounds; about 2,100 (0.62%) were called active. Only a sample is shown. Results with a measured potency or affinity are listed apart.
The entries below come with measured inhibition values attached.
The response must be a number in % with no trailing unit.

Example cases with answers are listed next.
Prompt line: Form field - read-out: inhibition; system: Rac GTPase-activating protein 1 (Homo sapiens) (UniProt Q9H0H5); submitted item: COc1cccc(CN(C)Cc2c(O)ccc3ccccc23)c1
Response line: 3.54

Prompt line: Form field - read-out: inhibition; system: Rac GTPase-activating protein 1 (Homo sapiens) (UniProt Q9H0H5); submitted item: COc1ccc(C2C(C(=O)Nc3cccc(C)n3)c3ccccc3C(=O)N2C)cc1 (configuration not stated)
Response line: 5.99

Prompt line: Form field - read-out: inhibition; system: Rac GTPase-activating protein 1 (Homo sapiens) (UniProt Q9H0H5); submitted item: Cc1ccc(C(=O)O)cc1N1CCCC1=O
Response line: -7.73

Prompt line: Form field - read-out: inhibition; system: Rac GTPase-activating protein 1 (Homo sapiens) (UniProt Q9H0H5); submitted item: C=CCNC(=O)c1snnc1-c1ccccc1
Response line: 5.75

Prompt line: Form field - read-out: inhibition; system: Rac GTPase-activating protein 1 (Homo sapiens) (UniProt Q9H0H5); submitted item: COc1ccc2nc3cc(Cl)ccc3c(Nc3cc(C(C)C)c(O)cc3C)c2c1
Response line: 7.74

Prompt line: Form field - read-out: inhibition; system: Rac GTPase-activating protein 1 (Homo sapiens) (UniProt Q9H0H5); submitted item: COc1ccc(OC)c(CN2CCN(c3ccccc3OC)CC2)c1
Response line: 19.8

Next:
Prompt line: Form field - read-out: inhibition; system: Rac GTPase-activating protein 1 (Homo sapiens) (UniProt Q9H0H5); submitted item: COc1ccccc1N1CCN(Cc2ccc(OC)c(OC)c2OC)CC1
Response line: 28.2

Prompt line: Form field - read-out: inhibition; system: Rac GTPase-activating protein 1 (Homo sapiens) (UniProt Q9H0H5); submitted item: COc1ccc(OC)c(CN2CCSCC2)c1
Response line: 36.4

---

Target: Rac GTPase-activating protein 1 (Homo sapiens) (UniProt Q9H0H5)
Assay: blockers of MgcRacGAP-driven Rac1 GTP hydrolysis – biochemical, ADP Hunter fluorescence, primary and confirmatory, confirmation (AID 624330);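 further: fluorescence reports GDP produced by GAP-driven GTP hydrolysis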
Conditions: MgcRacGAP-stimulated Rac1 GTP hydrolysis, at 30 µM, stronger effect = higher value, GST-tagged Rac1 F28L mutant substrate
Hit rate of the full screen: of about 340,000 compounds, about 2,100 (0.62%) were called active. The list is a sample of the results. Entries with a potency or affinity are not part of this list.
value type: inhibition (%)
The response must be a number in % with no trailing unit.

Prompt line: // lookup inhibition for N#CC1(Nc2ccc(S(N)(=O)=O)cc2)CCCC1
Response line: 2.96

Prompt line: // lookup inhibition for COc1ccc(/C=N/NC(=O)c2cc(C)oc2C)cc1OC
Response line: 3.85

Prompt line: // lookup inhibition for COc1ccc(OCCCNCCc2ccccc2)cc1
Response line: 4.94

Prompt line: // lookup inhibition for c1ccc2cc(OCCOCCOc3ccc4ccccc4c3)ccc2c1
Response line: -0.76

Prompt line: // lookup inhibition for CCOC(=O)c1[nH]c(C)c(C(=O)OCC(=O)NCc2ccc(OC)c(OC)c2)c1C
Response line: 1.24

Prompt line: // lookup inhibition for CN(C)c1ccc2c3c(ccc(N(C)C)c13)COC2
Response line: -1.08

Next:
Prompt line: // lookup inhibition for COC(=O)/C(N=Nc1c(C)n(C)n(-c2ccccc2)c1=O)=C(\C)O
Response line: 6.21

Prompt line: // lookup inhibition for CC(=O)/C(N=Nc1c(C)n(C)n(-c2ccccc2)c1=O)=C(\C)O
Response line: 0.69

Prompt line: // lookup inhibition for CCCCN1C(=O)C(CC(=O)NCCc2ccccn2)CC(C(=O)N2CCOCC2)=C1C (stereo unspecified)
Response line: 11.8

Prompt line: // lookup inhibition for COc1ccc(CN2CCOCCOCCOCCOCCOCC2)cc1
Response line: 12.1

Prompt line: // lookup inhibition for CCOC(=O)N1CCC(N2CCN(S(=O)(=O)c3ccc([N+](=O)[O-])cc3)CC2)CC1
Response line: 30.9

Prompt line: // lookup inhibition for COCCNC(=O)c1c[nH]c2ccc(S(=O)(=O)N3CCC4(CC3)OCCO4)cc2c1=O
Response line: 10.7

Prompt line: // lookup inhibition for Cc1c(N2C(=O)/C(=C/c3ccc(N(C)C)cc3)N(C)C2=S)c(=O)n(-c2ccccc2)n1C
Response line: 27.2

Prompt line: // lookup inhibition for Cc1ccc(NC(=O)CN(C)C(=O)CCSc2ccc(F)cc2)cc1
Response line: 5.93

Prompt line: // lookup inhibition for CC(C)Nc1nc(NC2CCCC2)nc(N2CCOCC2)n1
Response line: -6.17

Prompt line: // lookup inhibition for COc1ccc(/C=N/NC(=O)c2cc(C)oc2C)cc1OCc1ccccc1
Response line: 11.1

Prompt line: // lookup inhibition for CCCN(C(=O)Cc1csc(-c2ccccc2)n1)C1CCS(=O)(=O)C1 (stereo unspecified)
Response line: 4.87

Prompt line: // lookup inhibition for COc1ccc(-c2nc(N3CCOCC3)nc3n[nH]c(N)c23)cc1
Response line: -3.94

Prompt line: // lookup inhibition for COc1cc(/C=N/NC(=O)c2cc(C)oc2C)ccc1OCc1ccccc1
Response line: 5.24

Prompt line: // lookup inhibition for O=c1ccn([C@@H]2O[C@H](CNCC3=Cc4cc(O)ccc4OC3)[C@@H](O)[C@H]2O)c(=O)[nH]1
Response line: 20

Prompt line: // lookup inhibition for CN1C(=S)N(c2cccnc2)C(=O)/C1=C\c1ccc(N(C)C)cc1
Response line: 12.2

Prompt line: // lookup inhibition for Fc1ccccc1-c1csc(-c2cccnc2)n1
Response line: -4.78

Prompt line: // lookup inhibition for Cc1c(NC(=S)N/N=C/c2cccc(O)c2)c(=O)n(-c2ccccc2)n1C
Response line: 12.8

Prompt line: // lookup inhibition for COc1ccc(NC(=O)COc2ccc3c(c2)OCO3)cc1
Response line: 6.39

Prompt line: // lookup inhibition for NC(=O)c1cc(-c2csc(-c3cccnc3)n2)ccc1O
Response line: 18.7

Prompt line: // lookup inhibition for c1ccc(CCNCCOc2ccccc2)cc1
Response line: 17.6

Prompt line: // lookup inhibition for Nn1c(-c2cccc(O)c2)nnc1-c1cccc(O)c1
Response line: -0.05

Prompt line: // lookup inhibition for CC(C)(CN1CCOCC1)NS(=O)(=O)c1ccccc1
Response line: 1.36

Prompt line: // lookup inhibition for O=c1[nH]cn[nH]1
Response line: 0.25

---

Target: Rac GTPase-activating protein 1 (Homo sapiens)
Assay: blockers of MgcRacGAP-driven Rac1 GTP hydrolysis – biochemical, ADP Hunter fluorescence, primary and confirmatory, confirmation (AID 624330);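 further: fluorescence reports GDP produced by GAP-driven GTP hydrolysis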
Conditions: MgcRacGAP-stimulated Rac1 GTP hydrolysis, at 30 µM, stronger effect = higher value, GST-tagged Rac1 F28L mutant substrate
Among all 340,000 compounds or so, about 2,100 (0.62%) were called active. These entries were drawn from the full list. Potency and affinity values are given separately.
The entries below come with measured inhibition values attached.
The response must be a number in % with no trailing unit.

Example cases with answers are listed next.
Prompt line: // lookup inhibition for COC(=O)c1ccc(NC(=O)C2CCN(C(=O)Nc3ccccc3)CC2)cc1
Response line: 5.55

Prompt line: // lookup inhibition for Cc1nc(C(=O)N(C)C)nn1-c1cc(Cl)ccc1Cl
Response line: 9.33

Prompt line: // lookup inhibition for O=C(Cc1cccc(C(F)(F)F)c1)OCN1C(=O)c2ccccc2C1=O
Response line: 4.25

Prompt line: // lookup inhibition for O=C(Cc1cscn1)c1ccc(O)cc1O
Response line: 0.47

Prompt line: // lookup inhibition for CC[n+]1c(/C=C/c2ccc(OC)c(OC)c2)ccc2ccccc21
Response line: 11.3

Next:
Prompt line: // lookup inhibition for COc1cc(/C=N/NC(=S)NCCN2CCOCC2)cc(OC)c1O
Response line: 15.1

Prompt line: // lookup inhibition for COc1ccc(C(=O)NC(=S)N(C)Cc2ccccc2)cc1Br
Response line: 3.69

Prompt line: // lookup inhibition for O=C(C1CCC1)N1CCN(c2cccc(C(F)(F)F)c2)CC1
Response line: 0.34

Prompt line: // lookup inhibition for S=C(NCCN1CCOCC1)N/N=C/c1ccccc1
Response line: 6.95

Prompt line: // lookup inhibition for Cc1ccc(NCC(=O)c2ccccc2)cc1Cl
Response line: 3.37

Prompt line: // lookup inhibition for COc1ccccc1CN1CCSCC1
Response line: 23.4

Prompt line: // lookup inhibition for COc1ccc(/C=C/C(=O)OCC(=O)c2ccc[nH]2)cc1
Response line: 2.04
